Molecular target: JAK1 (Homo sapiens)
Construct: purchased Carna Biosciences
Sequence (P23458 whole entry): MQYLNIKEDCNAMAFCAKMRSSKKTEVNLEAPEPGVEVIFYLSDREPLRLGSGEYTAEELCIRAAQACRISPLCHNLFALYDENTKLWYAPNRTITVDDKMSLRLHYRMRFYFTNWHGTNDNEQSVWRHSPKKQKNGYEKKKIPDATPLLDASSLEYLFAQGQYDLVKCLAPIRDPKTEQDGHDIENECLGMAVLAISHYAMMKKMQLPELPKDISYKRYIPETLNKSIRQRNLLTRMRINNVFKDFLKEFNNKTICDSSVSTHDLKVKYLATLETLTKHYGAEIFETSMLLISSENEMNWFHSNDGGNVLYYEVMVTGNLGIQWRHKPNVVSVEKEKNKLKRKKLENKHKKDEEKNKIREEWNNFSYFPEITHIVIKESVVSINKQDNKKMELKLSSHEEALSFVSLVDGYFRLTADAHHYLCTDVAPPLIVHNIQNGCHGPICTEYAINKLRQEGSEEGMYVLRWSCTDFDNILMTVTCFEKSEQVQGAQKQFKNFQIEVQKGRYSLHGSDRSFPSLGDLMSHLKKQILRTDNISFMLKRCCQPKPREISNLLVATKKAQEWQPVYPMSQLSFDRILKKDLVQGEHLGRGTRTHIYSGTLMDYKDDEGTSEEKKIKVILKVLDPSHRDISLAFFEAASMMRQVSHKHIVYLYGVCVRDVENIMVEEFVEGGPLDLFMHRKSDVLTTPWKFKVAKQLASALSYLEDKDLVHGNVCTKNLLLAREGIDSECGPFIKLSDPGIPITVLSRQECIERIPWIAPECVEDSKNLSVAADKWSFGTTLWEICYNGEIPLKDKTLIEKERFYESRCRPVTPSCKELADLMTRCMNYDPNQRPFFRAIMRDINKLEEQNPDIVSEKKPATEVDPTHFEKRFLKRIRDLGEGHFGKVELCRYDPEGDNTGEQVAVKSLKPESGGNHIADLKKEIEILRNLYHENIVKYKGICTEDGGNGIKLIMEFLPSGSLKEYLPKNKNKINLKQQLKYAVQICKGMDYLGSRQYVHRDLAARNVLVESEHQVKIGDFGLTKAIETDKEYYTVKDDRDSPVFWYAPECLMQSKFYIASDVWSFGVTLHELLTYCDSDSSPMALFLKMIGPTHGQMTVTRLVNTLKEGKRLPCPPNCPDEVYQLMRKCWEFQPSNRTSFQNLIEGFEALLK
Assay: JAK1 microfluidic kinase assay (Caliper EZ Reader II, FAM labeled peptide substrate)
Assay type: biochemical
Conditions: (5 nM), 1 mM ATP; Table 3B, literature compounds; read-out: JAK1 (5 nM) (1 mM ATP)
Procedure: Compounds were tested against JAK1, JAK2, JAK2V617F and TYK2. Assay Formats: JAK activity was determined in the reaction buffer 50 mM HEPES, 0.01% Brij35, 10 mMMgCl2, 2 mMDTT by a microfluidic assay. The phosphorylation of a FAM labeled peptide substrate was monitored in the Caliper EZ Reader II (Perkin Elmer). […] The dose-response (percent inhibition) curve was plotted and IC50 values were determined by GraphPad software.
measured.parameter: IC50 (nM)
Give bare numbers, in nM.

>>> df
                                   molecule  obs_value
0  CCOc1ccc(-c2nc(Nc3cnn(C(C)C)c3)ncc2C)cc1F [Example 49, reference compound]       52.6

Give IC50 for each of the items listed below.
1. CCOc1ccc(-c2nc(Nc3cnn(C)c3)ncc2C)cc1F [Example 46, reference compound]
2. CCOc1ccc(-c2nc(Nc3cnn(C)c3)ncc2C)cc1 [Example 50, reference compound]
3. COc1ccc(-c2nc(Nc3cnn(C)c3)ncc2C)cc1F [Example 45, reference compound]
4. CCCOc1ccc(-c2nc(Nc3cnn(C)c3)ncc2C)cc1F [Example 48, reference compound]

1. 40.6
2. 151
3. 110
4. 25.7

State the recorded IC50 for this entry: Cc1cnc(Nc2cnn(C)c2)nc1-c1ccc(OC(C)C)c(F)c1 [Example 47, reference compound]
48.6
